STUDY_SYSTEM: rat lens aldose reductase (RLAR) (Rattus norvegicus, UniProt P07943)
Construct: Rat lens (RL) homogenate was prepared according to the modified method of Hayman and Kinoshita
PROTOCOL_NOTES: Rat lens AR inhibitory activity assay
CONDITION_SUMMARY: isolated compounds; read-out: RLAR inhibition IC50
MEASUREMENT_TYPE: IC50 (µM)

1. COc1ccc(-c2coc3cc(O)ccc3c2=O)cc1
69.2

A: O=c1c(-c2ccc(O)cc2)coc2cc(O)ccc12
B: O=c1c(-c2ccc(O)cc2)coc2cc(O)cc(O)c12
Dear colleague, could you let me know whether A or B has the lower recorded IC50? Thanks. # respond with the chosen item's label
B

----------
PROTOCOL_NOTES: Partition coefficient (K) in two-phase HSCCC solvent systems
Type: physicochemical
CONDITION_SUMMARY: n-Hexane-ethyl acetate-methanol-water 4 : 6 : 3.5 : 5.5 (v/v)
MEASUREMENT_TYPE: K values

1) COc1ccc(-c2coc3cc(O)ccc3c2=O)cc1
0.39
2) Oc1ccc(/C=C/c2cc(O)cc(O)c2)cc1
0.90

A: Oc1cc(O)cc(/C=C/c2ccc(O)c(O)c2)c1
B: O=c1c(-c2ccc(O)cc2)coc2cc(O)cc(O)c12
For the pair A and B , which entry has the numerically smaller recorded K values? Pick one and reply with its label.
A
(A: 0.37, B: 3.73)

----------
PROTOCOL_NOTES: Partition coefficient (K) in two-phase HSCCC solvent systems
Type: physicochemical
CONDITION_SUMMARY: n-Hexane-ethyl acetate-methanol-water 2.5 : 7.5 : 5 : 5 (v/v)
MEASUREMENT_TYPE: K values

1) Oc1cc(O)cc(/C=C/c2ccc(O)c(O)c2)c1
0.37
2) O=c1c(-c2ccc(O)cc2)coc2cc(O)cc(O)c12
2.04

A: Oc1ccc(/C=C/c2cc(O)cc(O)c2)cc1
B: COc1ccc(-c2coc3cc(O)ccc3c2=O)cc1
Hey, between A and B which has a smaller measured K values? Choose, then provide that item's label.
B
(B: 0.33, A: 0.57)

----------
STUDY_SYSTEM: rat lens AR (Rattus norvegicus)
Construct: Rat lens (RL) homogenate was prepared according to the modified method of Hayman and Kinoshita; from tissue; host or cells: lens of male Sprague-Dawley rats (homogenate supernatant, partially purified)
PROTOCOL_NOTES: HPLC microfractionation rat lens AR assay
Format: biochemical
Set-up: concentration or dose not given beside the values
CONDITION_SUMMARY: amount of efficacy in HPLC microfractionation (Table 3)
MEASUREMENT_TYPE: RLAR inhibition, Inhibition (%)

1) COc1c(O[C@@H]2O[C@H](CO)[C@@H](O)[C@H](O)[C@H]2O)cc2occ(-c3ccc(O)cc3)c(=O)c2c1O [Compound 4, tectoridin]
43.37

I: Oc1ccc(/C=C/c2cc(O)cc(O)c2)cc1 [Compound 6, resveratrol]
II: O=C(/C=C/c1ccc(O)c(O)c1)O[C@@H]1C[C@](O)(C(=O)O)C[C@@H](O)[C@H]1O [Compound 1, chlorogenic acid]
// task: argmin of RLAR inhibition, Inhibition (%) over [ I , II ] Write the label of whichever entry you select.
I

----------
STUDY_SYSTEM: rat lens aldose reductase (RLAR) (Rattus norvegicus)
Construct: Rat lens (RL) homogenate was prepared according to the modified method of Hayman and Kinoshita
PROTOCOL_NOTES: Rat lens AR inhibitory activity assay
CONDITION_SUMMARY: isolated compounds; read-out: RLAR inhibition IC50
pIC50: −log10 of the molar value.
MEASUREMENT_TYPE: pIC50

P: Oc1ccc(/C=C/c2cc(O)cc(O)c2)cc1
Q: O=C(/C=C/c1ccc(O)c(O)c1)O[C@@H]1C[C@](O)(C(=O)O)C[C@@H](O)[C@H]1O
// compare measured pIC50, left P , right Q , return larger Label of pick, please.
Q
(Q: 5.38, P: 3.93)
